B1: TPR t1 (parent)
chain: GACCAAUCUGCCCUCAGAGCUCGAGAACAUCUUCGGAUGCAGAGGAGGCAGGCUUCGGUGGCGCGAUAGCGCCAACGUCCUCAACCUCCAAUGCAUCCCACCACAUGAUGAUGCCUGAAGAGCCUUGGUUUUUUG

- Variants of: B1
- test-details: polymerase ribozyme fitness, log enrichment relative to wild type (log ratio); higher = more active; in vitro selection for triplet polymerase activity
# polymerase ribozyme fitness (log ratio) binned as bin 0 (below -4), bin 1 (-4 to below -2), bin 2 (-2 or more)

# count of solved cases: 5
{"alteration": "G23A G63U", "class": "bin 0"}
{"alteration": "C49G A90U G117A", "class": "bin 1"}
{"alteration": "C62U G113A", "class": "bin 2"}
{"alteration": "A46C G60U", "class": "bin 2"}
{"alteration": "C22U A43C C123G", "class": "bin 0"}

Turning to the following variant.
[Q] # classify by polymerase ribozyme fitness (log ratio) band: C76G U87G
[A] bin 2
